molecular target: EGFR[T790M/C797S/d746-750] (Homo sapiens, UniProt P00533, C797S/DEL746-750/T790M); construct: purchased Carna Bio; test: Inhibition of EGFR[T790M/C797S/d746-750] biochemical enzymatic activity (HTRF); conditions: EGFR T790M-C797S-Del19, 1 mM ATP, 1 h, room temperature, read-out: IC50 (nM) @T790M - C797S - Del19
Sequence (P00533 with tags, fused parts or gaps DEL746-750/T790M/C797S limits assumed): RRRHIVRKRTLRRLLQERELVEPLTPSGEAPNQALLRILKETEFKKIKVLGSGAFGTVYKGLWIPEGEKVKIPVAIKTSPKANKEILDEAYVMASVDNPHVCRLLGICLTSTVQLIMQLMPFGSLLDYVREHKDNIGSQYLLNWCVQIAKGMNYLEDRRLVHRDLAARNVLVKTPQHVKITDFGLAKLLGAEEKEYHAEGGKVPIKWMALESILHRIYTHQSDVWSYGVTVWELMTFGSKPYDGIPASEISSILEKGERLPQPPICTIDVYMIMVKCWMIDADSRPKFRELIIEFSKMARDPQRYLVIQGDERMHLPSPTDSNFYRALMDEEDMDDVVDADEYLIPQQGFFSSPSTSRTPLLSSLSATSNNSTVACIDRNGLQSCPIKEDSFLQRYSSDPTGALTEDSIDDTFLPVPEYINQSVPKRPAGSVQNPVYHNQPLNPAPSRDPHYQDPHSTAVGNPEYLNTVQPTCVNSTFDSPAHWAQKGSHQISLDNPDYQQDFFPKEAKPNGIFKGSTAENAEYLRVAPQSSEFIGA
# if measured IC50 < 5 nM: True  # else: False

# compound, qualitative_label
rows = [
    ("C[C@@H]1CCCOc2ccccc2-c2cc(cn(C)c2=O)C(=O)Nc2nc3ccc(N4CCN(C)CC4)cc3n2C1", "False"),
    ("CN1CCN(C2CCN(c3ccc4nc5n(c4c3)C34CCC(CN(CCOc6c(cnn6C)-c6cc(cn(C)c6=O)C(=O)N5)C3)C4)C2)CC1 (single isomer, unassigned) [Example A80A2]", "False"),
    ("Cn1ncc2c1OCCN1CC3CCC(CC3)(C1)n1c(nc3ccc(N4CCN(C5CC5)CC4)cc31)NC(=O)c1cc-2c(=O)n(C)c1", "True"),
    ("CN1CCC2(C1)CN(c1ccc3nc4n(c3c1)C13CCC(CN(CCOc5c(cnn5C)-c5cc(cn(C)c5=O)C(=O)N4)C1)C3)C2 (single isomer, unassigned) [Example A78B]", "True"),
    ("Cc1cc2cc(n1)-c1cnn(C)c1OCCN1CCCCC(C1)n1c(nc3ccccc31)NC2=O (stereo not drawn)", "False"),
]
